molecular target: OTU domain-containing protein 3 (Homo sapiens); assay: Validation of screening hits, potency titration, in vitro enzymatic, OTU domain-containing protein 3 DUB inhibitors (AID 1645868); conditions: purified OTUD3, ubiquitin-rhodamine cleavage fluorescence, 2 h
The source made the active and inactive calls.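 Rule for the calls: active = maximal percent inhibition of the deubiquitinase OTUD3 of at least 30% across the tested doses; inactive = the rest.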
Classes used: active, inactive

[
  {
    "molecule": "Cc1nc(-c2ccc(NC(=O)N3CCN(c4ccccn4)CC3)cc2)no1",
    "experimental.target": "OTU domain-containing protein 3 (Homo sapiens)",
    "category.label": "inactive"
  },
  {
    "molecule": "O=C(OCc1ccc(F)cc1)c1ccc2ccccc2n1",
    "experimental.target": "OTU domain-containing protein 3 (Homo sapiens)",
    "category.label": "inactive"
  },
  {
    "molecule": "COc1ccc(S(=O)(=O)N(C)Cc2cccs2)cc1OC",
    "experimental.target": "OTU domain-containing protein 3 (Homo sapiens)",
    "category.label": "inactive"
  },
  {
    "molecule": "c1ccc2c(c1)CCc1c-2nc2ccccc2c1N1CCOCC1",
    "experimental.target": "OTU domain-containing protein 3 (Homo sapiens)",
    "category.label": "inactive"
  },
  {
    "molecule": "COc1cc2c(cc1OC)C(COc1ccccc1OC)N(C(=O)c1ccc3ccccc3c1)CC2 (stereo not drawn)",
    "experimental.target": "OTU domain-containing protein 3 (Homo sapiens)",
    "category.label": "inactive"
  },
  {
    "molecule": "COc1ccc(Cl)cc1-n1nnc(C(=O)N2CCc3ccccc3C2)c1C",
    "experimental.target": "OTU domain-containing protein 3 (Homo sapiens)",
    "category.label": "inactive"
  },
  {
    "molecule": "O=C(NCc1ccc(Cl)cc1)c1ccc(N2CCCS2(=O)=O)cc1",
    "experimental.target": "OTU domain-containing protein 3 (Homo sapiens)",
    "category.label": "inactive"
  },
  {
    "molecule": "Cc1nc(-c2ccccn2)sc1C(=O)Nc1ccc(C#N)cc1",
    "experimental.target": "OTU domain-containing protein 3 (Homo sapiens)",
    "category.label": "inactive"
  },
  {
    "molecule": "Cc1ccc2cc(CCNC(=O)c3cccc(Br)c3)c(=O)[nH]c2c1",
    "experimental.target": "OTU domain-containing protein 3 (Homo sapiens)",
    "category.label": "inactive"
  },
  {
    "molecule": "CSc1ccc(CNC(=O)CC2CCN(S(=O)(=O)c3ccc(C)cc3)CC2)cc1",
    "experimental.target": "OTU domain-containing protein 3 (Homo sapiens)",
    "category.label": "active"
  },
  {
    "molecule": "COc1cccc(/C=C/C(=O)Nc2ccc(N3CCOCC3)cc2)c1OC",
    "experimental.target": "OTU domain-containing protein 3 (Homo sapiens)",
    "category.label": "inactive"
  },
  {
    "molecule": "N#Cc1ccc(NC(=O)Nc2cccn(Cc3c(F)cccc3Cl)c2=O)cc1",
    "experimental.target": "OTU domain-containing protein 3 (Homo sapiens)",
    "category.label": "inactive"
  },
  {
    "molecule": "COc1ccc(-c2cc(C(=O)NC3CCCCCC3)[nH]n2)cc1S(=O)(=O)N(C)C",
    "experimental.target": "OTU domain-containing protein 3 (Homo sapiens)",
    "category.label": "inactive"
  },
  {
    "molecule": "Cc1ccc2c(C)nc(Nc3ncc4c(n3)CC(c3ccco3)CC4=O)nc2c1 (stereo not drawn)",
    "experimental.target": "OTU domain-containing protein 3 (Homo sapiens)",
    "category.label": "active"
  },
  {
    "molecule": "Cc1ccc(-n2nnc(C(=O)NC3CCCCC3)c2N)cc1",
    "experimental.target": "OTU domain-containing protein 3 (Homo sapiens)",
    "category.label": "inactive"
  },
  {
    "molecule": "CCc1ccc(NC(=O)Cc2nnc3cc(-c4nc(C)no4)ccn23)cc1",
    "experimental.target": "OTU domain-containing protein 3 (Homo sapiens)",
    "category.label": "active"
  },
  {
    "molecule": "O=C(COc1ccc(Cl)cc1)N1CCc2cc3ccccc3nc21",
    "experimental.target": "OTU domain-containing protein 3 (Homo sapiens)",
    "category.label": "inactive"
  },
  {
    "molecule": "Cc1nnc(NCc2cccnc2)c2c1nnn2Cc1ccccc1Cl",
    "experimental.target": "OTU domain-containing protein 3 (Homo sapiens)",
    "category.label": "inactive"
  },
  {
    "molecule": "O=c1[nH]c2ccc(S(=O)(=O)Nc3ccc(O)c4ccccc34)cc2[nH]1",
    "experimental.target": "OTU domain-containing protein 3 (Homo sapiens)",
    "category.label": "inactive"
  },
  {
    "molecule": "CC12c3ccc4c(c3C(=O)c3occ(c31)C(=O)CC2O)CCC4=O (stereo not drawn)",
    "experimental.target": "OTU domain-containing protein 3 (Homo sapiens)",
    "category.label": "inactive"
  },
  {
    "molecule": "O=c1[nH]cccc1NS(=O)(=O)c1ccc(F)cc1",
    "experimental.target": "OTU domain-containing protein 3 (Homo sapiens)",
    "category.label": "inactive"
  },
  {
    "molecule": "COc1c2c(cc3cc(O)c4c(=O)cc(C)oc4c13)CCC2=O",
    "experimental.target": "OTU domain-containing protein 3 (Homo sapiens)",
    "category.label": "inactive"
  },
  {
    "molecule": "Cc1cc(C(=O)N2CC(C(=O)Nc3cc(C(F)(F)F)ccc3Cl)C2)no1",
    "experimental.target": "OTU domain-containing protein 3 (Homo sapiens)",
    "category.label": "inactive"
  }
]

Origin of values: PubChem BioAssay AID1645868
